target: T1, Recombinant MBP-mutCALR Type 1 fusion protein (human); experiment: SPR, IgG captured, 1:1 fit, Exp. 1
T1 construct: custom made at Cepter; also called recombinant mutCALR protein
readout_kind: kon (M⁻¹ s⁻¹)
All answers are understood in M⁻¹ s⁻¹, so give the number only.

Reference set (2 entries):
binder="anti-mutCALR antibody clone 51 (antibody, human IgG1, lambda, V domains shown, human IgG1) VH: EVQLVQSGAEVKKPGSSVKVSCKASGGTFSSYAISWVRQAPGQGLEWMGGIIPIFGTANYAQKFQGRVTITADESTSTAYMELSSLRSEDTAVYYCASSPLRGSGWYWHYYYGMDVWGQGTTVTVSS VL: SYELTQPPSVSVAPGKTARITCGGNKIGTKSVHWYQQKPGQAPVLVIYQDSKRPSGIPERFSGSNSGNTATLTISGTQAMDEADYYCQAWGSSTVVFGGGTKLTVLG" readout_kind=kon assay_value=235000
binder="anti-mutCALR antibody clone 26 (antibody, human IgG1, lambda, V domains shown, human IgG1) VH: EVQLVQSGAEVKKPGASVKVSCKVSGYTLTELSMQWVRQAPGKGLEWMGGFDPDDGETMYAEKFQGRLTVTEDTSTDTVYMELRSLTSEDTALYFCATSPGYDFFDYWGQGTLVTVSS VL: SYVLTQPPSVSVAPGQTARITCGGNNIGSKSVHWYQQKPGQAPVLVVYDDSDRPSGIPERFSGSNSGNTATLTISRVEAGDEADYYCQVWDSSIDHLIFGGGTKVTVLG" readout_kind=kon assay_value=478000

Request: Name the recorded kon of the item anti-mutCALR antibody clone 24 (antibody, human IgG1, lambda, V domains shown, human IgG1) VH: EVQLVQSGAEVKKPGASVKVSCKVSGYTLTELSMQWVRQAPGKGLEWMGGFDPDDGETMYAEKLQGRLTVTEDTSTDTVYMELRSLTSEDTALYFCATSPGYDFFDYWGQGTLVTVSS VL: SYVLTQPPSVSVAPGKTARITCGGNNIGSKSVHWYQQKPGQAPVLVVYDDSDRPSGIPERFSGSNSGNTATLTINRVEAGDEADYYCQVWDSSNDLLIFGGGTKLTVLG in your answer.
Response: 261000

Request: Name the recorded kon of the item anti-mutCALR antibody clone 37 (antibody, human IgG1, lambda, V domains shown, human IgG1) VH: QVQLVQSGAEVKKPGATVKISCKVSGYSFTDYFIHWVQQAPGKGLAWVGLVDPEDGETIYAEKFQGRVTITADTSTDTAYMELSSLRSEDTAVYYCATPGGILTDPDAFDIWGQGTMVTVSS VL: QSALTQPASVSGSPGQSITISCTGTSSDVGGYNYVSWYQQHPGKAPKLMIYDVSNRPSGVSNRFSGSKSGNTASLTISGLQAEDEADYYCSSYTSSSTFYVFGTGTKVTVLG in your answer.
Response: 215000

Request: Name the recorded kon of the item anti-mutCALR antibody clone 21 (antibody, human IgG1, lambda, V domains shown, human IgG1) VH: EVQLVQSGAEVKKPGASVKVSCEVSGYTLTELSMQWVRQAPGKGLEWMGGFDPDDGETMYAEKFQGRLTVTEDTSTDTVYMELRSLTSEDTALYFCATSPGYDFFDYWGQGTLVTVSS VL: SYVLTQPPSVSVAPGQTARVSCGGNNIGSKSVNWYRQKPGQAPVLVIYDDSDRPSGIPERFSGSNSGNTATLTISRVEAGDEADYYCQVWDSSNDLLIFGGGTKLTVLG in your answer.
Response: 2.57e+06

Request: Name the recorded kon of the item anti-mutCALR antibody clone 36 (antibody, human IgG1, lambda, V domains shown, human IgG1) VH: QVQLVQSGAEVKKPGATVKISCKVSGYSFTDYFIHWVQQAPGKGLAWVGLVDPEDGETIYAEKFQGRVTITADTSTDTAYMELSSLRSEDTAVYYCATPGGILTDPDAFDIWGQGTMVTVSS VL: QSALTQPRSVSGSPGQSVTISCAGTGSDVGGYNYVSWYQHHPGKAPKLMIYDVNKRPSGVPDRFSGSKSGNTASLTISGLQAEDEADYYCSSYTSSSTFYVFGTGTKVTVLG in your answer.
Response: 695000
